The measured values listed here are drawn from ChEMBL document CHEMBL1134622.

- System: Cynomolgus monkey
- method_summary: Area under concentration curve in cynomolgus monkey after iv administration
- Format: ADME, organism-based, Macaca fascicularis
- experimental_setup: in vivo
endpoint: AUC (ng·h/mL)

P: Cc1cc[n+]([O-])c(C)c1C(=O)N1CCC(C)(N2CCN([C@@H](C)c3ccc(C(F)(F)F)cc3)[C@@H](C)C2)CC1
Q: Cc1ccnc(C)c1C(=O)N1CCC(C)(N2CCN([C@@H](C)c3ccc(C(F)(F)F)cc3)[C@@H](C)C2)CC1
Exercise: Return label of the item with the larger AUC. Candidates: P , Q . Please indicate the selected item by its label.
Solution: P

====

- method_summary: Half life determined after iv administration to dog
- Type: ADME, organism-based, Canis lupus familiaris
- experimental_setup: in vivo
endpoint: half-life (h)
Please respond with the number in h and leave the unit unwritten.

Exercise: Could you tell me which half-life is on file for Cc1cc[n+]([O-])c(C)c1C(=O)N1CCC(C)(N2CCN([C@@H](C)c3ccc(C(F)(F)F)cc3)[C@@H](C)C2)CC1 ?
Solution: 6

====

- method_summary: Time required for the maximum plasma concentration in rat blood levels at 10 mg/kg
- Assay type: ADME, organism-based
- Set-up: dose 10 mg/kg
endpoint: Tmax (h)
Please respond with the number in h and leave the unit unwritten.

Exercise: Could you tell me which Tmax is on file for Cc1ccnc(C)c1C(=O)N1CCC(C)(N2CCN([C@@H](C)c3ccc(C(F)(F)F)cc3)[C@@H](C)C2)CC1 ?
Solution: 1.5

====

- method_summary: Time required for the maximum plasma concentration in rat.
- Type: ADME, organism-based
endpoint: Tmax (h)
Please respond with the number in h and leave the unit unwritten.

Exercise: Could you tell me which Tmax is on file for Cc1cc[n+]([O-])c(C)c1C(=O)N1CCC(C)(N2CCN([C@@H](C)c3ccc(C(F)(F)F)cc3)[C@@H](C)C2)CC1 ?
Solution: 2.5

====

- System: Cynomolgus monkey
- method_summary: Area under concentration curve in cynomolgus monkey after oral administration
- Assay type: ADME, organism-based, Macaca fascicularis
- experimental_setup: in vivo
endpoint: AUC (µg·h/mL)

P: Cc1cc[n+]([O-])c(C)c1C(=O)N1CCC(C)(N2CCN([C@@H](C)c3ccc(C(F)(F)F)cc3)[C@@H](C)C2)CC1
Q: Cc1ccnc(C)c1C(=O)N1CCC(C)(N2CCN([C@@H](C)c3ccc(C(F)(F)F)cc3)[C@@H](C)C2)CC1
Exercise: Just tell me: smaller AUC value, P or Q ? Please indicate the selected item by its label.
Solution: Q

====

- System: Rattus norvegicus
- method_summary: Pharmacokinetic characterization measured on oral blood levels in rat at 10 mg/kg (0-6 hr)
- Format: ADME, organism-based
- Design: time < 6 hr, dose 10 mg/kg, route oral
- experimental_setup: in vivo
endpoint: AUC (ng·h/mL)

molecule: C[C@H]1CN(C2(C)CCN(C(=O)c3c(N)cccc3Cl)CC2)CCN1[C@@H](C)c1ccc(I)cc1
u: ng·h/mL
AUC: 1980

a: Cc1cccc(C)c1C(=O)N1CCC(C)(N2CCN([C@@H](C)c3ccc(I)cc3)[C@@H](C)C2)CC1
b: Cc1cccc(O)c1C(=O)N1CCC(C)(N2CCN([C@@H](C)c3ccc(C(F)(F)F)cc3)[C@@H](C)C2)CC1
Exercise: Just tell me: smaller AUC value, a or b ? Please indicate the selected item by its label.
Solution: a

1: Cc1cc[n+]([O-])c(C)c1C(=O)N1CCC(C)(N2CCN([C@@H](C)c3ccc(C(F)(F)F)cc3)[C@@H](C)C2)CC1
2: Cc1cccc(O)c1C(=O)N1CCC(C)(N2CCN([C@@H](C)c3ccc(I)cc3)[C@@H](C)C2)CC1
3: C[C@H]1CN(C2(C)CCN(C(=O)c3c(N)cccc3Cl)CC2)CCN1[C@@H](C)c1ccc(C(F)(F)F)cc1
Exercise: # desc sort on AUC across 3 compounds Answer format: list of labels, ordered as asked.
Solution: 1, 2, 3

====

- method_summary: Plasma concentration after 6 hours of oral administration in rat
- Format: ADME, organism-based
- experimental_setup: read-out: C6h
endpoint: concentration at 6 h (ng/mL)
Please respond with the number in ng/mL and leave the unit unwritten.

Exercise: Could you tell me which concentration at 6 h is on file for Cc1cc[n+]([O-])c(C)c1C(=O)N1CCC(C)(N2CCN([C@@H](C)c3ccc(C(F)(F)F)cc3)[C@@H](C)C2)CC1 ?
Solution: 1300
